B1: Nuclear receptor subfamily 4 group A member 2, residues 260 to 336; numbered along this chain, P43354 (parent)
chain: EGLCAVCGDNAACQHYGVRTCEGCKGFFKRTVQKNAKYVCLANKNCPVDKRRRNRCQYCRFQKCLAVGMVKEVVRTD

- Variants of: B1
- test protocol: abundance fitness (aPCA) (normalised: wild type 0, dead -1); higher = more abundant; growth selection in yeast, the domain comes from the species named
- settings: Homo sapiens
param class (str): category from abundance fitness; see ranges lower band: < -0.3; central band: ≥ -0.3 and < -0.09; upper band: ≥ -0.09

See these solved cases before continuing.
{"columns": ["variant annotation", "discrete label"],
 "data": [
  ["A5R", "upper band"],
  ["F28Y", "upper band"],
  ["N35Y", "central band"],
  ["F28P", "lower band"],
  ["R30F", "upper band"],
  ["N43Q", "central band"],
  ["R19S", "upper band"],
  ["R53S", "upper band"],
  ["V48C", "central band"],
  ["P47S", "upper band"]
]}

[ask] Which abundance fitness category applies to "R30V" here?
[reply] central band

[ask] Which abundance fitness category applies to "V67G" here?
[reply] central band
